# System: Escherichia coli TOP10;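 further: peptides expressed intracellularly from a pBAD plasmid library in pooled LB shake-flask culture, induced with 0.3% L-arabinose, DNA abundance read by NGS, three biological replicates, DESeq2 with apeglm shrinkage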
# protocolText: shrunken log2 fold change of peptide-encoding DNA abundance (4.5 h post-induction vs induction); higher = less antimicrobial activity (less host growth inhibition)
# testSettings: time post-induction: 4.5 h; library: site-saturation at positions 5, 18, 19, 20
Measured shrunken log2 fold change, listed per entry.
propertyLabel: shrunken log2 fold change

1. RRIRFRPPRLPRPRPRPQTWPRP ... -0.743
2. RRIRNRPPRLPRPRPRPEQQPRP ... 0.736
3. RRIRMRPPRLPRPRPRPQNCPRP ... 0.0712
4. RRIRTRPPRLPRPRPRPKAHPRP ... 0.182
5. RRIRYRPPRLPRPRPRPHAPPRP ... -0.0159
6. RRIRQRPPRLPRPRPRPKWLPRP ... 0.0992
7. RRIRYRPPRLPRPRPRPYLEPRP ... -1.7
8. RRIRLRPPRLPRPRPRPQHGPRP ... -0.0844
9. RRIRNRPPRLPRPRPRPRTAPRP ... -0.0352
10. RRIRGRPPRLPRPRPRPSQWPRP ... 0.101
11. RRIRDRPPRLPRPRPRPLSSPRP ... 0.184
12. RRIRGRPPRLPRPRPRPLIRPRP ... 0.0808
13. RRIRPRPPRLPRPRPRPSWSPRP ... -0.0705
14. RRIRRRPPRLPRPRPRPPQKPRP ... 1.31
15. RRIRYRPPRLPRPRPRPAKEPRP ... 0.0142
